biological target: human 11b-hsd-1 (Homo sapiens, UniProt P28845); experiment: Inhibition constant Ki of human 11b-hsd-1 (3H-cortisone to 3H-cortisol conversion, HPLC); assay type: biochemical; details: compound at 0.1 μM
Sequence (P28845 whole entry): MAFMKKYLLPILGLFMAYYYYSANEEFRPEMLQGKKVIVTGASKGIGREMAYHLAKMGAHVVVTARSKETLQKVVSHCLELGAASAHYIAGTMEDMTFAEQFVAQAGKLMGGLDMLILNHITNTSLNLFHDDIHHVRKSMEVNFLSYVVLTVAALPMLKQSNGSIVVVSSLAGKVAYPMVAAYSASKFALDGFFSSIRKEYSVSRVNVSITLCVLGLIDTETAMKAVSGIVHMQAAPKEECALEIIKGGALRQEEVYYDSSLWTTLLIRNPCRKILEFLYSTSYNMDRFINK
Recorded Metric: inhibition at 0.1 µM (%)
Give just the number in %; leave the unit off.

Compound: CS(=O)(=O)N1CCC(CN2CCC[C@@H]2C(=O)NC2C3CC4CC(C3)CC2C4)CC1 (stereo partly shown)
Target Desc: human 11b-hsd-1 (Homo sapiens, UniProt P28845)
inhibition at 0.1 µM (%): 100

Query: What does the record list as inhibition at 0.1 µM for CCCN1CCC[C@@H]1C(=O)NC1CC2CCC1C2 (stereo partly shown) ?
Response: 100

Query: What does the record list as inhibition at 0.1 µM for CCN(CC)CCN1CCC[C@@H]1C(=O)NC1C2CC3CC(C2)CC1C3 (stereo partly shown) ?
Response: 77

Query: What does the record list as inhibition at 0.1 µM for O=C(NC12CC3CC(CC(C3)C1)C2)C1COCCN1Cc1ccccc1 (stereo not shown) ?
Response: 100

Query: What does the record list as inhibition at 0.1 µM for "CCOc1ccccc1CNC(=O)[C@H]1COCCN1CC(C)C" ?
Response: 82

Query: What does the record list as inhibition at 0.1 µM for "CCOCCN1CCC[C@@H]1C(=O)NC1CCCCC1" ?
Response: 78

---

target: human 11b-hsd-1 (Homo sapiens, UniProt P28845); experiment: Inhibition constant Ki of human 11b-hsd-1 (3H-cortisone to 3H-cortisol conversion, HPLC); format: biochemical; details: apparent Ki; read-out: Ki app
Recorded Metric: log10(Ki) (log10 of the value in nM)
Friendly reminder: values = log10 of Ki, unit nM.

Would you please look over these solved cases?
Molecule: N#Cc1ccc(CN2CCC[C@@H]2C(=O)NC23CC4CC(CC(C4)C2)C3)cc1
Reported Measurement: 0.00

Molecule: COc1ccccc1CNC(=O)[C@H]1CCCN1CCc1ccccc1
Reported Measurement: 1.82

Molecule: CC(C)Oc1ccccc1O[C@@H]1CN[C@H](C(=O)NC2C3CC4CC(C3)CC2C4)C1 (some centres unmarked)
Reported Measurement: 0.66

Molecule: O=C(NC12CC3CC(CC(C3)C1)C2)[C@H]1CCCN1Cc1ccccc1
Reported Measurement: 0.11

Read the next record carefully.
Query: What does the record list as log10(Ki) for "N#Cc1ccc(CN2CCOC[C@@H]2C(=O)N[C@@H]2CCCc3ccccc32)cc1" ?
Response: 0.82

---

biological target: human 11b-hsd-1 (Homo sapiens); test: Inhibition constant Ki of human 11b-hsd-1 (3H-cortisone to 3H-cortisol conversion, HPLC); type: biochemical; conditions: apparent Ki; read-out: Ki app
pKi listing for selected molecules.
# reply with the number alone; pKi is -log10 of concentration in mol/L

Would you please look over these solved cases?
Molecule: O=C(NC1C2CC3CC(C2)CC1C3)[C@H]1NCC[C@@H]1Cc1ccccc1 (stereo partly drawn)
pKi: 8.18
--
Molecule: CC(C)CN1CCC[C@@H]1C(=O)NCc1cccc(Cl)c1
pKi: 7.59
--
Molecule: O=C(NCc1ccc(Cl)cc1)[C@H]1CCCN1Cc1ccccc1
pKi: 6.92
--
Molecule: COc1ccccc1CNC(=O)[C@H]1CCCN1Cc1ccc(Cl)cc1
pKi: 7.92
--
Molecule: O=C(NCc1c(F)cccc1F)[C@H]1CCCN1CC1CCCC1
pKi: 7.49
--
Molecule: CCCN1CCC[C@@H]1C(=O)NCc1ccccc1
pKi: 6.77
--
Molecule: N#Cc1ccc(CN2CCC[C@@H]2C(=O)NCc2ccccc2Cl)cc1
pKi: 7.62
--
Molecule: O=C(N[C@@H]1CCCc2ccccc21)[C@H]1COCCN1CC1CCCC1
pKi: 7.89

Read the next record carefully.
Query: What does the record list as pKi for "CC(C)CN1CCC[C@@H]1C(=O)NCc1cccc(F)c1" ?
Response: 7.99

---

target: human 11b-hsd-1 (Homo sapiens); assay: Inhibition constant Ki of human 11b-hsd-1 (3H-cortisone to 3H-cortisol conversion, HPLC); assay type: biochemical; settings: apparent Ki; read-out: Ki app
Recorded Metric: pKi
# reply with the number alone; pKi is -log10 of concentration in mol/L

Would you please look over these solved cases?
Compound: O=C(NCc1ccccc1Cl)[C@H]1CCCN1Cc1ccccc1
Target Desc: human 11b-hsd-1 (Homo sapiens)
Reported Measurement: 7.85
//
Compound: C[C@@H](NC(=O)[C@H]1CCCN1Cc1ccccc1)c1ccc(Cl)cc1
Target Desc: human 11b-hsd-1 (Homo sapiens)
Reported Measurement: 7.94
//
Compound: O=C(NCc1ccccc1Cl)[C@H]1CCCN1CCC(F)(F)F
Target Desc: human 11b-hsd-1 (Homo sapiens)
Reported Measurement: 8.39

Query: What does the record list as pKi for "CC(C)CN1CCC[C@@H]1C(=O)NC12CC3CC(CC(C3)C1)C2" ?
Response: 8.50

Query: What does the record list as pKi for "CN(Cc1ccccc1)C(=O)[C@H]1COCCN1Cc1ccccc1" ?
Response: 9.00

Query: What does the record list as pKi for "CC(C)CN1CCOC[C@@H]1C(=O)N[C@@H]1CCc2ccccc21" ?
Response: 8.24

---

target: UniProt:P28845; assay: Inhibition constant Ki of human 11b-hsd-1 (3H-cortisone to 3H-cortisol conversion, HPLC); type: biochemical; conditions: compound at 0.1 μM
Quick rule: inhibition at 0.1 µM of at least 90% means Condition met, below that means Condition not met.

Query: Does CC(=O)N1CCC[C@@H]1C(=O)NC1C2CC3CC(C2)CC1C3 (stereo partly drawn) [Example 18, N-2-adamantyl-1-acetyl-D-prolinamide] have a reported inhibition at 0.1 µM of at least 90%?
Response: Condition not met

Query: Does CCCN1CCC[C@@H]1C(=O)NC1CCC(F)(F)CC1 [Example 137] have a reported inhibition at 0.1 µM of at least 90%?
Response: Condition not met

Query: Does CC12C3C4C1C1C2C3C41NC(=O)[C@H]1CCCN1 (stereo partly shown) [Example 143] have a reported inhibition at 0.1 µM of at least 90%?
Response: Condition not met

Query: Does CC(C)(C)OC(=O)N1CCCC(C(=O)Nc2ccc3ncccc3n2)C1 (stereo not shown) [Example 164] have a reported inhibition at 0.1 µM of at least 90%?
Response: Condition not met

Query: Does O=C(NC1C2CC3CC(C2)CC1C3)[C@H]1CCCN1Cc1ccccn1 (stereo partly shown) [Example 41] have a reported inhibition at 0.1 µM of at least 90%?
Response: Condition met

Query: Does O=C(NC1CCCCC1)[C@H]1CCCN1C1CCC1 [Example 103] have a reported inhibition at 0.1 µM of at least 90%?
Response: Condition not met

---

target: human 11b-hsd-1 (Homo sapiens); assay: Inhibition constant Ki of human 11b-hsd-1 (3H-cortisone to 3H-cortisol conversion, HPLC); format: biochemical; conditions: apparent Ki; read-out: Ki app
Assign labels as follows, please: Criterion met for Ki below 6 nM; Criterion not met for Ki equal to or exceeding 6 nM.

Query: Would you kindly verify if Ki of "N#Cc1ccc(CN2CCC[C@@H]2C(=O)N[C@@H]2CCCc3ccccc32)cc1" is strictly less than 6 nM?
Response: Criterion met

Query: Would you kindly verify if Ki of "O=C(N[C@@H]1CCc2ccccc21)[C@H]1CCCN1Cc1ccccc1" is strictly less than 6 nM?
Response: Criterion met

Query: Would you kindly verify if Ki of "O=C(NCc1c(F)cccc1F)[C@H]1COCCN1Cc1ccccc1" is strictly less than 6 nM?
Response: Criterion not met

Query: Would you kindly verify if Ki of O=C(NC1C2CC3CC(C2)CC1C3)[C@@H]1C[C@H](Oc2ccccc2)CN1 (some centres unmarked) is strictly less than 6 nM?
Response: Criterion met

Query: Would you kindly verify if Ki of "O=C(NCc1ccc(F)cc1)[C@H]1CCCN1Cc1ccccc1" is strictly less than 6 nM?
Response: Criterion not met

---

inhibition at 0.1 µM listing for selected compounds.
target: human 11b-hsd-1 (Homo sapiens, UniProt P28845); experiment: Inhibition constant Ki of human 11b-hsd-1 (3H-cortisone to 3H-cortisol conversion, HPLC); assay type: biochemical; conditions: 0.1 μM compound
Give just the number in %; leave the unit off.

Query: What does the record list as inhibition at 0.1 µM for "CC(C)CN1CCC[C@@H]1C(=O)NCc1ccccc1F" ?
Response: 96.7

Query: What does the record list as inhibition at 0.1 µM for "O=C(NCc1ccc(F)cc1)[C@H]1CCCN1Cc1ccccc1Cl" ?
Response: 71.5

Query: What does the record list as inhibition at 0.1 µM for "CC(C)CN1C[C@H](O)C[C@H]1C(=O)NC12CC3CC(CC(C3)C1)C2" ?
Response: 92.1

Query: What does the record list as inhibition at 0.1 µM for O=C(NC1C2CC3CC(C2)CC1C3)[C@@H]1C[C@H](Oc2ccc(F)c(F)c2F)CN1 (stereo partly shown) ?
Response: 100

Query: What does the record list as inhibition at 0.1 µM for "CC(C)CN1CCOC[C@@H]1C(=O)NCc1ccccc1" ?
Response: 76

Query: What does the record list as inhibition at 0.1 µM for O=C(NC1C2CC3CC(C2)CC1C3)[C@H]1COCCN1CC1CC1 (stereo partly shown) ?
Response: 100

Query: What does the record list as inhibition at 0.1 µM for "CCCN1CCC[C@@H]1C(=O)NCc1ccccc1" ?
Response: 84.6

Query: What does the record list as inhibition at 0.1 µM for "O=C(N[C@H]1c2ccccc2C[C@H]1O)[C@H]1COCCN1CC1CCCC1" ?
Response: 92

Query: What does the record list as inhibition at 0.1 µM for "COc1ccccc1CNC(=O)[C@H]1CCCN1Cc1ccc(C#N)cc1" ?
Response: 83.5

Reference source for all entries: patent US20050261290A1
